Values were extracted from PubChem BioAssay (Tox21).

Target: Nuclear receptor subfamily 1 group I member 2 (Homo sapiens)
Experiment: Human pregnane X receptor (PXR) small molecule agonists, qHTS assay (AID 1346982); also: nearly all actives have a fitted effect of over 35% in size
Conditions: PXR-Luc HepG2, CYP3A4 luciferase reporter, 24 h; series mostly up to 92.4 µM
Results filed as inconclusive are left out. Active and inactive are the calls of the source. Calls follow the shape of the dose curve; as a rule, active = well fitted activation curve with a large enough effect in the repeat runs; inconclusive = weak or mixed curves; inactive = no such curve, though single readings can be large or run the other way.
Allowed answers: Y for active, N for inactive

Worked examples follow.
CN(C(=O)CCCOc1ccc2[nH]c(=O)ccc2c1)C1CCCCC1    Y
C=C(C)C(=O)OCCN(C)C    N
O=CNc1ccccc1    N
C1CCC2OC2C1 (configuration not stated)    N

How did this test come out for Oc1ccc(Cc2ccccc2)cc1 ?
Y

How did this test come out for Cc1c(Cn2ccnc2)c2ccccc2n1CCC(=O)O ?
N

How did this test come out for Nc1ccc(C(=O)N2CC3CC(CN(Cc4ccccc4)C3)C2)cc1 ?
N
